Listing of recorded IC50 by entry.
# test system: human recombinant TPK1 (Homo sapiens, UniProt P49841)
# Sequence (P49841 whole entry): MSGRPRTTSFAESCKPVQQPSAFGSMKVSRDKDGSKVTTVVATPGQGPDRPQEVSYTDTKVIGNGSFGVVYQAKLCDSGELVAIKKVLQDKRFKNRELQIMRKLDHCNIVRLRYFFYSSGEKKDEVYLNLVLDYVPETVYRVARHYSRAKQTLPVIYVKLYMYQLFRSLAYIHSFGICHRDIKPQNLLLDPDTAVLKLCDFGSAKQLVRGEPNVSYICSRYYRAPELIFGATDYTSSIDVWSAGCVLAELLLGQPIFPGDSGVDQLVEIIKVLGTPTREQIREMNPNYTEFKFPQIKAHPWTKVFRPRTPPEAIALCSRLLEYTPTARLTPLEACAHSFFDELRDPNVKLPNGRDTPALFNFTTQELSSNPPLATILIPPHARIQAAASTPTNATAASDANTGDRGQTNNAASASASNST
# test method notes: Inhibitory activity against P-GS1 phosphorylation by TPK1 (Kinase Glo luminescence)
# Format: biochemical
# cond: 7.5 μM P-GS1, 10 μM ATP, 25° C. for 16 hours, Kinase Glo Reagent luminescent signal

compound	measurement units	IC50
Cn1c(N2CCCN(c3ccc(F)cc3)CC2)nc(-c2ccncc2)cc1=O	nM	84.2
Cc1nc(-c2ccc([C@H]3CN(c4nc(-c5ccncc5)cc(=O)n4C)CCCO3)cc2)no1	nM	77.4
Cc1nc(-c2ccc(C3CCN(c4nc(-c5ccncn5)cc(=O)n4C)CCO3)cc2)no1 (single isomer, unassigned; (-)) [Compound A112]	nM	30
Cn1c(N2CCOCCC2c2ccccc2)nc(-c2ccncn2)cc1=O (centres unmarked)	nM	41
Cn1c(N2CCCO[C@@H](c3ccc(F)cc3)C2)nc(-c2ccncc2F)cc1=O	nM	6
Cn1c(N2CCCO[C@H](c3cccc(C(N)=O)c3)C2)nc(-c2ccncc2)cc1=O	nM	68.8
Cc1nc(-c2cccc([C@@H]3CN(c4nc(-c5ccncc5F)cc(=O)n4C)CCCO3)c2)no1	nM	164
CCC1CCOCCN1c1nc(-c2ccncn2)cc(=O)n1C (centres unmarked)	nM	195

---

# test system: human recombinant TPK1 (Homo sapiens)
# test method notes: Inhibitory activity against P-GS1 phosphorylation by TPK1 (Kinase Glo luminescence)
# cond: 7.5 μM P-GS1, 10 μM ATP, 25° C. for 16 hours, Kinase Glo Reagent luminescent signal
Structures can show the parent of a compound that is named as a salt.
// reported IC50 per item

compound	test system	IC50 (nM)
Cc1nc(-c2cccc([C@H]3CN(c4nc(-c5ccncc5)cc(=O)n4C)CCCO3)c2)no1	human recombinant TPK1 (Homo sapiens)	44.6
Cn1c(N2CCOC(c3ccc(-c4ncon4)cc3)CC2)nc(-c2ccncn2)cc1=O (single isomer, unassigned; (+)) [Compound A099]	human recombinant TPK1 (Homo sapiens)	14.7
Cn1c(N2CCOCC(c3ccccc3)C2)nc(-c2ccncn2)cc1=O (single isomer, unassigned; (-))	human recombinant TPK1 (Homo sapiens)	1.4
Cn1c(N2CCCN(c3ccc(F)cc3)CC2)nc(-c2ccncc2F)cc1=O	human recombinant TPK1 (Homo sapiens)	18.4
COc1ccc(C2CCN(c3nc(-c4ccncn4)cc(=O)n3C)CCO2)cc1 (centres unmarked)	human recombinant TPK1 (Homo sapiens)	54.7
Cn1c(N2CCCOC(c3ccc(F)cc3)C2)nc(-c2ccncc2)cc1=O (centres unmarked) [Compound A035, hydrochloride]	human recombinant TPK1 (Homo sapiens)	27
Cc1nc(-c2ccc(C3CCN(c4nc(-c5ccncc5F)cc(=O)n4C)CCO3)cc2)no1 (single isomer, unassigned; (-)) [Compound A097]	human recombinant TPK1 (Homo sapiens)	11.3
Cn1c(N2CCCO[C@@H](c3cccc(Br)c3)C2)nc(-c2ccncc2F)cc1=O	human recombinant TPK1 (Homo sapiens)	4.5
Cn1c(N2CCOC(c3ccccc3F)CC2)nc(-c2ccncc2F)cc1=O (centres unmarked)	human recombinant TPK1 (Homo sapiens)	8.15
Cn1c(N2CCOC(c3ccc(F)cc3)CC2)nc(-c2ccncn2)cc1=O (centres unmarked)	human recombinant TPK1 (Homo sapiens)	13.8
CC1CN(c2nc(-c3ccncc3)cc(=O)n2C)CCCO1 (centres unmarked)	human recombinant TPK1 (Homo sapiens)	446
Cn1c(N2CCOC(c3ccc(F)cc3)CC2)nc(-c2ccncc2F)cc1=O (centres unmarked)	human recombinant TPK1 (Homo sapiens)	24.6
Cn1c(N2CCCN(c3ccc(F)cc3)CC2)nc(-c2ccncn2)cc1=O	human recombinant TPK1 (Homo sapiens)	35.1
CC1COCCN(c2nc(-c3ccncc3F)cc(=O)n2C)C1 (centres unmarked)	human recombinant TPK1 (Homo sapiens)	15
Cc1noc(-c2ccc(C3CCN(c4nc(-c5ccncc5F)cc(=O)n4C)CCO3)cc2)n1 (single isomer, unassigned; (+)) [Compound A090]	human recombinant TPK1 (Homo sapiens)	6.1
COc1ccccc1C1CCN(c2nc(-c3ccncc3)cc(=O)n2C)CCO1 (centres unmarked)	human recombinant TPK1 (Homo sapiens)	47.6
Cn1c(N2CCOCC(c3ccc(-c4ncon4)cc3)C2)nc(-c2ccncc2F)cc1=O (centres unmarked)	human recombinant TPK1 (Homo sapiens)	7.1

---

# test system: human recombinant TPK1 (Homo sapiens, UniProt P49841)
# test method notes: Inhibitory activity against P-GS1 phosphorylation by TPK1 (Kinase Glo luminescence)
# cond: 7.5 μM P-GS1, 10 μM ATP, 25° C. for 16 hours, Kinase Glo Reagent luminescent signal

molecule	IC50 [nM]
Cc1noc(-c2ccc(C3CCN(c4nc(-c5ccncn5)cc(=O)n4C)CCO3)cc2)n1 (single isomer, unassigned; (-)) [Compound A121]	83.4
Cn1c(N2CCCOC(c3ccccc3)C2)nc(-c2ccncc2F)cc1=O (stereo not shown) [Compound A006]	2.3
Cn1c(N2CCOCC(c3ccc(-c4ncon4)cc3)C2)nc(-c2ccncn2)cc1=O (stereo not shown) [Compound A082]	13.2
Cc1noc(-c2ccc(C3CCN(c4nc(-c5ccncn5)cc(=O)n4C)CCO3)cc2)n1 (single isomer, unassigned; (+)) [Compound A103]	16.3

---

# test system: human recombinant TPK1 (Homo sapiens, UniProt P49841)
# test method notes: Inhibitory activity against P-GS1 phosphorylation by TPK1 (Kinase Glo luminescence)
# cond: 7.5 μM P-GS1, 10 μM ATP, 25° C. for 16 hours, Kinase Glo Reagent luminescent signal
result type: IC50 (nM)

molecule	result type	quantitative readout
Cn1c(N2CCCO[C@H](c3cccc(C(N)=O)c3)C2)nc(-c2ccncn2)cc1=O [Compound A049]	IC50	70.6
Cn1c(N2CCCO[C@H](c3ccc(Br)cc3)C2)nc(-c2ccncn2)cc1=O [Compound A058]	IC50	221
Cc1nc(-c2cccc([C@H]3CN(c4nc(-c5ccncn5)cc(=O)n4C)CCCO3)c2)no1 [Compound A030]	IC50	19.8
Cn1c(N2CCCO[C@H](c3ccc(Br)cc3)C2)nc(-c2ccncc2F)cc1=O [Compound A044]	IC50	52.4

---

# test system: human recombinant TPK1 (Homo sapiens)
# test method notes: Inhibitory activity against P-GS1 phosphorylation by TPK1 (Kinase Glo luminescence)
# cond: 7.5 μM P-GS1, 10 μM ATP, 25° C. for 16 hours, Kinase Glo Reagent luminescent signal
pIC50: −log10 of the molar value.
Below, each entry is listed with its recorded pIC50.
result type: pIC50

compound	test system	quantitative readout
Cn1c(N2CCCO[C@@H](c3cccc(C(N)=O)c3)C2)nc(-c2ccncc2F)cc1=O	human recombinant TPK1 (Homo sapiens)	8.17
COc1cccc(C2CCN(c3nc(-c4ccncc4)cc(=O)n3C)CCO2)c1 (stereo not shown)	human recombinant TPK1 (Homo sapiens)	7.55
Cc1noc(-c2ccc(C3COCCN(c4nc(-c5ccncn5)cc(=O)n4C)C3)cc2)n1 (stereo not shown)	human recombinant TPK1 (Homo sapiens)	7.89
Cn1c(N2CCCO[C@H](c3ccc(C#N)cc3)C2)nc(-c2ccncc2F)cc1=O	human recombinant TPK1 (Homo sapiens)	6.08
Cn1c(N2CCOC(c3ccc(Br)cc3)CC2)nc(-c2ccncn2)cc1=O (single isomer, unassigned; (-)) [Compound A122]	human recombinant TPK1 (Homo sapiens)	6.94
Cn1c(N2CCOC(c3ccc(-c4ncon4)cc3)CC2)nc(-c2ccncc2F)cc1=O (single isomer, unassigned; (+)) [Compound A089]	human recombinant TPK1 (Homo sapiens)	8.27
Cn1c(N2CCCO[C@@H](c3ccc(Br)cc3)C2)nc(-c2ccncc2)cc1=O	human recombinant TPK1 (Homo sapiens)	7.92
CC1COCCN(c2nc(-c3ccncc3)cc(=O)n2C)C1 (stereo not shown)	human recombinant TPK1 (Homo sapiens)	6.75
Cn1c(N2CCCO[C@@H](c3cccc(Br)c3)C2)nc(-c2ccncn2)cc1=O	human recombinant TPK1 (Homo sapiens)	8.14
COc1ccc(C2CCN(c3nc(-c4ccncc4F)cc(=O)n3C)CCO2)cc1 (stereo not shown)	human recombinant TPK1 (Homo sapiens)	7.97
Cn1c(N2CCCO[C@@H](c3ccc(C(N)=O)cc3)C2)nc(-c2ccncn2)cc1=O	human recombinant TPK1 (Homo sapiens)	7.96
Cn1c(N2CCOCC(c3ccc(-c4ncno4)cc3)C2)nc(-c2ccncn2)cc1=O (stereo not shown)	human recombinant TPK1 (Homo sapiens)	7.97
Cc1noc(-c2ccc([C@H]3CN(c4nc(-c5ccncc5)cc(=O)n4C)CCCO3)cc2)n1	human recombinant TPK1 (Homo sapiens)	7.54
Cn1c(N2CCCO[C@@H](c3cccc(C#N)c3)C2)nc(-c2ccncc2F)cc1=O	human recombinant TPK1 (Homo sapiens)	7.94
CC1CN(c2nc(-c3ccncc3F)cc(=O)n2C)CCCO1 (stereo not shown)	human recombinant TPK1 (Homo sapiens)	7.46
CC1CCOCCN1c1nc(-c2ccncc2F)cc(=O)n1C (stereo not shown)	human recombinant TPK1 (Homo sapiens)	8.01

---

IC50 by entry:
# test system: human recombinant TPK1 (Homo sapiens)
# test method notes: Inhibitory activity against P-GS1 phosphorylation by TPK1 (Kinase Glo luminescence)
# cond: 7.5 μM P-GS1, 10 μM ATP, 25° C. for 16 hours, Kinase Glo Reagent luminescent signal
# Procedure: Inhibitory Activity of the Medicament of the Present Invention Against P-GS1 Phosphorylation by Bovine Cerebral TPK1 A mixture containing 100 mM HEPES-sodium hydroxide (pH 7.2), 1 mM magnesium acetate, 1 mM EGTA, 1 mM dithiothreitol (DTT), 0.02% Tween 20, 7.5 μM P-GS1, 10 μM ATP, human recombinant TPK1 and a compound shown in Table (a final mixture contained 1% DMSO deriving from a solution of a test compound prepared in the presence of 10% DMSO) was used as a reaction system. […]
result type: IC50 (µM)

compound	test system	result type	quantitative readout
Cn1c(N2CCCO[C@@H](c3cccc(C#N)c3)C2)nc(-c2ccncc2)cc1=O	human recombinant TPK1 (Homo sapiens)	IC50	0.0615
Cn1c(N2CCOC(c3ccc(Br)cc3)CC2)nc(-c2ccncn2)cc1=O (single isomer, unassigned; (+)) [Compound A096]	human recombinant TPK1 (Homo sapiens)	IC50	0.0108
Cn1c(N2CCCO[C@@H](c3ccc(F)cc3)C2)nc(-c2ccncn2)cc1=O	human recombinant TPK1 (Homo sapiens)	IC50	0.0083
Cn1c(N2CCOC(c3cccc(F)c3)CC2)nc(-c2ccncn2)cc1=O (stereo not drawn)	human recombinant TPK1 (Homo sapiens)	IC50	0.0205
Cn1c(N2CCCO[C@@H](c3ccc(C(N)=O)cc3)C2)nc(-c2ccncc2)cc1=O	human recombinant TPK1 (Homo sapiens)	IC50	0.011
Cn1c(N2CCOC(c3ccc(Br)cc3)CC2)nc(-c2ccncc2F)cc1=O (single isomer, unassigned; (-)) [Compound A120]	human recombinant TPK1 (Homo sapiens)	IC50	0.0828
